studyTarget: CD47, human, endogenous on cells (human, UniProt Q08722 19-323)
assayOverview: cell-based or functional assay
Ends that are not written are not given here.
testReadout: cGMP signaling IC50**

{"binder": "IGWKNFTAYR [peptide 37297 (IGWKNFTAYR)]", "testReadout": "cGMP signaling IC50**", "observedValue": "> 10 µM"}
{"binder": "Ac-WKDFTAYR [peptide 37300 (Ac-WKDFTAYR)]", "testReadout": "cGMP signaling IC50**", "observedValue": "~1 µM"}
{"binder": "IGWHDFTAYR [peptide 37414 (IGWHDFTAYR)]", "testReadout": "cGMP signaling IC50**", "observedValue": "> 10 µM"}
{"binder": "IGWKDFAAYR [peptide 37299]", "testReadout": "cGMP signaling IC50**", "observedValue": "> 10 µM"}

Data origin, for the record: patent US20100092467A1
